target: G119S AChE1 (Culex pipiens, UniProt Q86GC8, G247S); construct: made in house; host or cells: Drosophila S2 cells; test: biochemical; assay type: biochemical; conditions: recombinant OP-insensitive G119S C. pipiens AChE1; 15 min incubation; acetylthiocholine; read-out: IC50 G119S
measuredMetric: pIC50
Answers are plain numbers, as −log10 of the molar value.

N=C1NC(=O)C(=Cc2ccco2)C(=O)N1c1ccccc1 :: 4.31
Cc1ccc(C=C2C(=O)NC(=O)N(CCc3ccc(F)cc3)C2=O)o1 :: 5.43
O=C1NC(=O)N(c2ccccc2)C(=O)C1=Cc1ccc(-c2cccc(C(=O)O)c2)o1 :: 5.03
Cc1ccc(C=C2C(=O)NC(=O)N(C3CCCCC3)C2=O)o1 :: 5.26
Cc1ccc(C=C2C(=O)NC(=S)N(c3ccc(F)cc3)C2=O)o1 :: 4.66
Cc1ccc(C=C2C(=O)NC(=O)N(c3ccc(C(=O)O)cc3)C2=O)o1 :: 4.89
CN1C(=O)C(=Cc2ccc(-c3ccc(S(N)(=O)=O)cc3)o2)C(=O)N(C)C1=O :: 5.28
Cc1cccc(N2C(=O)C(=Cc3ccc(C)o3)C(=O)NC2=S)c1 :: 4.54
CN1C(=O)C(=Cc2ccc(N3CCOCC3)o2)C(=O)N(C)C1=O :: 3.84
CN1C(=O)C(=Cc2ccc(N3CCCC3)o2)C(=O)N(C)C1=O :: 2.82

Please state, for each entry, its recorded pIC50.
1. O=C1NC(=S)N(c2ccccc2)C(=O)C1=Cc1ccco1
2. CN1C(=O)C(=Cc2ccc(-c3ccccc3C(=O)O)o2)C(=O)N(C)C1=O
3. COc1ccccc1N1C(=O)NC(=O)C(=Cc2ccc(C)o2)C1=O
4. Cc1ccc(N2C(=O)NC(=O)C(=Cc3ccc(C)o3)C2=O)cc1
5. O=C1NC(=O)N(c2ccccc2)C(=O)C1=Cc1cccs1
6. O=C1NC(=O)N(c2ccccc2)C(=O)C1=Cc1ccc(N2CCCCC2)s1

[4.01, 5.08, 6.00, 4.85, 4.95, 5.21]

Please state, for each entry, its recorded pIC50.
1. Cc1ccc(C=C2C(=O)NC(=O)N(Cc3ccco3)C2=O)o1
2. O=C1NC(=O)N(c2ccccc2)C(=O)C1=Cc1ccc(Sc2ccccc2)o1
3. Cc1ccc(C=C2C(=O)NC(=O)N(c3ccccc3)C2=O)s1
4. CN1CCN(c2ccc(C=C3C(=O)N(C)C(=O)N(C)C3=O)o2)CC1
5. COc1ccc(OC)c(N2C(=O)NC(=O)C(=Cc3ccc(C)o3)C2=O)c1
6. O=C1NC(=O)N(c2ccccc2)C(=O)C1=Cc1ccco1

4.43
5.96
5.30
4.28
5.70
3.13

* * *

molecular target: WT AChE1 (Culex pipiens, UniProt Q86GC8); assay: AChE assay (Ellman), dose-response on recombinant WT AChE1; type: biochemical; design: made in house; host or cells: Drosophila S2 cells; settings: recombinant wild-type C. pipiens AChE1; 15 min incubation; acetylthiocholine; read-out: IC50 WT
measuredMetric: pIC50
Give bare numbers, as −log10 of the molar value.

Recorded results for 5 compounds are shown here.
CN1C(=O)C(=Cc2ccc([N+](=O)[O-])o2)C(=O)N(C)C1=O :: 4.08
CC(=O)c1ccc(-c2ccc(C=C3C(=O)N(C)C(=O)N(C)C3=O)o2)cc1 :: 5.47
CN1C(=O)C(=Cc2ccc(Sc3ccccc3)o2)C(=O)N(C)C1=O :: 5.52
COc1ccc(OC)c(N2C(=O)NC(=O)C(=Cc3ccc(C)o3)C2=O)c1 :: 5.70
Cc1ccc(C=C2C(=O)N(C)C(=O)N(C)C2=O)o1 :: 4.13

Please state, for each entry, its recorded pIC50.
1. CN1C(=O)C(=Cc2ccc(-c3ccc4c(c3)COC4=O)o2)C(=O)N(C)C1=O
2. CN1C(=O)C(=Cc2ccc(N3CCOCC3)o2)C(=O)N(C)C1=O
3. Cc1ccc(C=C2C(=O)NC(=O)N(c3cccc(Br)c3)C2=O)o1
4. Cc1ccc(C=C2C(=O)NC(=O)N(c3ccc(Cl)cc3)C2=O)o1

1. 6.22
2. 3.59
3. 5.82
4. 3.48

* * *

Tested on: C. pipiens SR strain larvae
Test: Larval bioassay, SR strain (OP-resistant)
Conditions: fourth-instar larvae, 24 hours exposure, 300 µM
Experimental: Three C. pipiens strains were used: the susceptible reference Slab strain, homozygous for ace-1 ^S [39], the resistant reference SR strain, carrying the genetical background of Slab but homozygous for the G119S mutation, allele ace-1 ^R [21] and the Ducos strain, carrying the genetical background of Slab but homozygous for an ace-1 duplication, with one ace-1^S and ace-1^R copy in tandem. […] Insecticidal activity was determined by performing bioassays on fourth-instar larvae as described in [42]. […]
Kindly supply the reported Mortality at 300 µM, SR values for the records listed here.
Note to self: number, then unit, no commentary.

CN1C(=O)C(=Cc2ccc(-c3ccc4c(c3)COC4=O)o2)C(=O)N(C)C1=O :: 0%
COc1ccc(N2C(=O)C(=Cc3ccc(C)o3)C(=O)NC2=S)c(OC)c1 :: 25%

Please state, for each entry, its recorded Mortality at 300 µM, SR.
1. Cc1ccc(C=C2C(=O)NC(=O)N(CCc3ccc(F)cc3)C2=O)o1
2. O=C1NC(=O)N(c2ccccc2)C(=O)C1=Cc1cccs1
3. Cc1ccc(N2C(=O)C(=Cc3ccc(C)o3)C(=O)NC2=S)cc1

0%
0%
0%

Please state, for each entry, its recorded Mortality at 300 µM, SR.
1. O=C1NC(=O)N(c2ccccc2)C(=O)C1=Cc1ccco1
2. Cc1ccc(C=C2C(=O)NC(=O)N(c3cccc(Br)c3)C2=O)o1
3. Cc1cccc(N2C(=O)C(=Cc3ccc(C)o3)C(=O)NC2=S)c1
4. CCN(CC)c1ccc(C=C2C(=O)N(C)C(=O)N(C)C2=O)o1
5. CN1C(=O)C(=Cc2ccc(N(C)C)o2)C(=O)N(C)C1=O
6. Cc1ccc(C=C2C(=O)NC(=O)N(C3CCCCC3)C2=O)o1
7. COc1ccc(N2C(=O)NC(=O)C(=Cc3ccc(C)o3)C2=O)cc1

["100%", "97%", "68%", "0%", "20%", "53%", "87%"]

* * *

target: WT AChE1 (Culex pipiens); test: AChE assay (Ellman), dose-response on recombinant WT AChE1; format: biochemical; set-up: made in house; host or cells: Drosophila S2 cells; conditions: recombinant wild-type C. pipiens AChE1; 15 min incubation; acetylthiocholine; read-out: IC50 WT
Label met when IC50 < 200 µM; otherwise not met.

O=C1NC(=O)N(c2ccccc2)C(=O)C1=Cc1cccs1 :: met
O=C1NC(=O)N(c2ccccc2)C(=O)C1=Cc1ccc(N2CCCCC2)s1 :: met
Cc1ccc(C=C2C(=O)NC(=O)N(c3ccc(C(C)C)cc3)C2=O)o1 :: met
CN1C(=O)C(=Cc2ccc(-c3cccc(C(=O)O)c3)o2)C(=O)N(C)C1=O :: met
Cc1ccc(C=C2C(=O)NC(=O)N(Cc3ccco3)C2=O)o1 :: not met
CCc1ccc(N2C(=O)NC(=O)C(=Cc3ccc(C)o3)C2=O)cc1 :: not met
Cc1ccc(C=C2C(=O)NC(=S)N(c3ccc(Cl)cc3)C2=O)o1 :: met

From here, focus on the item given below.
# TODO verify IC50 < 200 µM strictly for this molecule: "Cc1ccc(C=C2C(=O)NC(=S)N(CCc3ccc(F)cc3)C2=O)o1"
met

* * *

molecular target: G119S AChE1 (Culex pipiens, UniProt Q86GC8, G247S); construct: made in house; host or cells: Drosophila S2 cells; experiment: biochemical; format: biochemical; settings: recombinant OP-insensitive G119S C. pipiens AChE1; 15 min incubation; acetylthiocholine; read-out: IC50 G119S
measuredMetric: pIC50
Numbers only, as −log10 of the molar value.

Recorded results for 3 compounds are shown here.
COc1ccc(N2C(=O)C(=Cc3ccc(C)o3)C(=O)NC2=S)c(OC)c1 :: 5.89
Cc1ccc(C=C2C(=O)NC(=O)N(c3ccccc3C)C2=O)o1 :: 5.96
Cc1ccc(C=C2C(=O)NC(=O)N(c3ccccc3)C2=O)o1 :: 5.21

Please state, for each entry, its recorded pIC50.
1. COc1cccc(N2C(=O)NC(=O)C(=Cc3ccc(C)o3)C2=O)c1
2. CCc1ccc(N2C(=O)C(=Cc3ccc(C)o3)C(=O)NC2=S)cc1

[5.22, 4.80]

Please state, for each entry, its recorded pIC50.
1. Cc1ccc(C=C2C(=O)NC(=O)N(c3cccc(Br)c3)C2=O)o1
2. Cc1ccc(C=C2C(=O)NC(=O)N(c3ccc(Cl)cc3)C2=O)o1
3. CN1C(=O)C(=Cc2ccco2)C(=O)N(C)C1=O
4. Cc1ccc(C=C2C(=O)NC(=O)N(c3ccc(C)c(C)c3)C2=O)o1
5. O=C1NC(=O)N(c2ccccc2)C(=O)C1=Cc1ccc(Br)o1

5.72
4.56
3.45
4.46
4.49

* * *

target: G119S AChE1 (Culex pipiens, UniProt Q86GC8, G247S); construct: made in house; host or cells: Drosophila S2 cells; assay: biochemical; assay type: biochemical; conditions: recombinant OP-insensitive G119S C. pipiens AChE1; 15 min incubation; acetylthiocholine; read-out: IC50 G119S
measuredMetric: log10 of IC50 (log10 of the value in µM)
All values: log10 IC50 [µM].

Recorded results for 5 molecules are shown here.
O=C1NC(=O)N(c2ccccc2)C(=O)C1=Cc1ccc(N2CCCCC2)o1 :: 3.18
COc1ccccc1N1C(=O)C(=Cc2ccc(C)o2)C(=O)NC1=S :: 0.26
COc1ccc(N2C(=O)NC(=O)C(=Cc3ccc(C)o3)C2=O)cc1 :: 1.91
Cc1ccc(C=C2C(=O)NC(=S)N(c3ccc(C(=O)O)cc3)C2=O)o1 :: -0.70
Cc1ccc(C=C2C(=O)NC(=O)N(c3ccccc3F)C2=O)o1 :: 0.26

Please state, for each entry, its recorded log10 of IC50.
1. C=CCN1C(=O)NC(=O)C(=Cc2ccc(C)o2)C1=O
2. O=C1NC(=O)N(c2ccccc2)C(=O)C1=Cc1ccc(N2CCOCC2)s1
3. Cc1ccc(N2C(=O)C(=Cc3ccc(C)o3)C(=O)NC2=S)cc1
4. CN1C(=O)C(=Cc2ccc(-c3ccc4c(c3)COC4=O)o2)C(=O)N(C)C1=O
5. Cc1ccc(C=C2C(=O)NC(=S)N(c3cccc(Cl)c3)C2=O)o1
6. Cc1ccc(C=C2C(=O)NC(=S)N(c3ccc(Cl)cc3)C2=O)o1

1. 0.34
2. 3.39
3. 0.28
4. 0.75
5. 0.90
6. 0.94

Please state, for each entry, its recorded log10 of IC50.
1. C=CCN1C(=O)NC(=O)C(=Cc2ccc(C)s2)C1=O
2. Cc1ccc(C=C2C(=O)NC(=O)N(c3cccc(Cl)c3Cl)C2=O)o1
3. CCN(CC)c1ccc(C=C2C(=O)N(C)C(=O)N(C)C2=O)o1
4. CCc1ccc(N2C(=O)NC(=O)C(=Cc3ccc(C)o3)C2=O)cc1
5. Cc1ccc(C=C2C(=O)NC(=O)N(c3ccc(F)cc3)C2=O)o1
6. O=C1NC(=O)N(c2ccccc2)C(=O)C1=Cc1ccc(N2CCOCC2)o1
7. Cc1ccc(C=C2C(=O)NC(=O)N(c3ccc(C(C)C)cc3)C2=O)o1

1. 1.71
2. 0.68
3. 3.02
4. 1.28
5. 0.90
6. 2.54
7. 1.33

Please state, for each entry, its recorded log10 of IC50.
1. COc1cccc(N2C(=O)C(=Cc3ccc(C)o3)C(=O)NC2=S)c1
2. Cc1ccc(C=C2C(=O)NC(=S)N(CCc3ccc(F)cc3)C2=O)o1
3. CCOC(=O)c1ccc(-c2ccc(C=C3C(=O)NC(=O)N(c4ccccc4)C3=O)o2)cc1

1.53
1.58
0.28
